TESTED TARGET: human adenosine A2A receptor (A2aR) (human, UniProt P29274 1-412)
Sequence (P29274 whole entry): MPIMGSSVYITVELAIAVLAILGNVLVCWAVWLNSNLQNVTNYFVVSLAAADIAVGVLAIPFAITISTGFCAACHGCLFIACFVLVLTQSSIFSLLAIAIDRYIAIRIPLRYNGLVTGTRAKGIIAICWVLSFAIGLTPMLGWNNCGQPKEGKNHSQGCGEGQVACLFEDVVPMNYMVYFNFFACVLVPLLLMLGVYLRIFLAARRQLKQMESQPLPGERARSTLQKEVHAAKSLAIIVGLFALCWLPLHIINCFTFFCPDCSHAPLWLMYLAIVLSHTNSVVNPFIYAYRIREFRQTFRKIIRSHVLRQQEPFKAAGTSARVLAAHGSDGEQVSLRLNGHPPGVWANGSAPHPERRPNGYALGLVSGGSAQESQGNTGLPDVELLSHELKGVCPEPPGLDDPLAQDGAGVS
TEST NAME: cell-based or functional assay
For each record, write down the corresponding IC50 of blocking activity, cAMP-Glo, 300 nM NECA, HEK293-hA2aR cells, supernatant.
One number for each entry, in nM.

BINDER	RESULT UNIT	VALUE MEASURED
Hu3F8-H1/Hu3F8-L5 (antibody, human IgG1, V domains shown, Human IgG1 FES (L234F, L235E, P331S) and human Ig kappa constant domains; also called Hu3F8 VH1/VL5) VH: QVQLVQSGAEVKKPGASVKVSCKASGFTFTRYWMNWVRQAPGQGLEWMGRIDPSDSETHYNHKFWGRVTMTRDTSTSTVYMELSSLRSEDTAVYYCLRSLYGKGDYWGQGTTVTVSS VL: DVVMTQSPLSLPVTPGEPASISCRSSQSIVHSNGNTYLEWYLQKPGQSPQLLIYKVSNRFSGVPDRFSGSGSGTDFTLKISRVEAEDVGVYYCYQGSHVPLTFGGGTKVEIK	nM	1.4

Now look at this one.
Given the binder Hu3F8-H6/Hu3F8-L5 (antibody, human IgG1, V domains shown, Human IgG1 FES (L234F, L235E, P331S) and human Ig kappa constant domains; also called Hu3F8 VH6/VL5) VH: EVQLVQSGAEVKKPGESLRISCKASGFTFTRYWMNWVRQMPGKGLEWIGRIDPSDSETHYNHKFWGHATLSVDKSSSTVYLQWSSLKASDTAMYYCLRSLYGKGDYWGQGTTVTVSS VL: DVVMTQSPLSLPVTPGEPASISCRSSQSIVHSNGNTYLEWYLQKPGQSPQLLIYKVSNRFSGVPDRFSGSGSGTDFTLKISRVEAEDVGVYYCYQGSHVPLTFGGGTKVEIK , what is its reported IC50 of blocking activity, cAMP-Glo, 300 nM NECA, HEK293-hA2aR cells, supernatant?
1.5
